- Species on record: Mus musculus
- test summary: Effective dose for 25% blood glucose decrease in genetically diabetic KKA mice.
- Type: functional
- protocol conditions: Mus musculus, Blood; read-out: ED25
Give measured ED25 for each item. Keep answers brief.
Field format: number, assumed mg/kg/day, no unit text.

Look up ED25 for this compound: Cc1oc(-c2ccccc2)nc1CCOc1ccc(CC2C(=O)NOC2=O)cc1 (stereo unspecified) [REGLITAZAR]
38

Look up ED25 for this compound: `Cc1oc(-c2ccccc2)nc1CCOc1ccc(CC(C(=O)O)C(=O)O)cc1`
0.44

Look up ED25 for this compound: `COC(=O)C(Cc1ccc(OCCc2nc(-c3ccccc3)oc2C)cc1)C(=O)OC`
0.011

Look up ED25 for this compound: CCc1ccc(CCOc2ccc(CC3SC(=O)NC3=O)cc2)nc1 (stereo unspecified) [PIOGLITAZONE]
4.6

Look up ED25 for this compound: Cc1c(C)c2c(c(C)c1O)CCC(C)(COc1ccc(CC3SC(=O)NC3=O)cc1)O2 (stereo unspecified) [TROGLITAZONE]
170

Look up ED25 for this compound: COC(=O)C(Cc1ccc(OCCc2nc(-c3ccccc3)oc2C)cc1)C(=O)O (stereo unspecified)
0.024
